The measured values listed here are drawn from patent US5068325A.

Assay read-out IC50; system under study: alpha-2 receptors (Rattus norvegicus).
Sequence (P22909 whole entry): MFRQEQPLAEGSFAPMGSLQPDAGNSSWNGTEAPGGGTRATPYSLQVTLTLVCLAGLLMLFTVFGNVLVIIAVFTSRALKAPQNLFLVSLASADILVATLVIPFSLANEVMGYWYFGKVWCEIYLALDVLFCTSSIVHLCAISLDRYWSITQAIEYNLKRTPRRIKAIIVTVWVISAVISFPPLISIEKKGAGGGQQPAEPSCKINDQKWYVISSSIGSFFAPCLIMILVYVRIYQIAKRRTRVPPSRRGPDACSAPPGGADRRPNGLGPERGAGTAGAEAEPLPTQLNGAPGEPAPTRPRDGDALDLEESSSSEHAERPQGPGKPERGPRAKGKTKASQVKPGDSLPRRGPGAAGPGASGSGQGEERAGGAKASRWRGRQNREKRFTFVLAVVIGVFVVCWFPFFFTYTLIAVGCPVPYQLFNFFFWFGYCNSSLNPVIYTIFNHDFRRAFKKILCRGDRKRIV
Numbers only, in nM.

Cc1cccnc1C=CCN1CCc2nc(N)sc2CC1 [Example 11i] ... 1500
Nc1nc2c(s1)CCN(CC=Cc1cc3ccccc3cn1)CC2 [Example 24a] ... 900
Cl.Cl.Nc1nc2c(s1)CCN(CCCc1ccccc1)CC2 ... 810

// input: 3 compounds below; output: IC50 for each
1. Nc1nc2c(s1)CCN(CCc1ccccc1)CC2 [Compound C, reference compound]
2. C=CCN1CCc2nc(N)sc2CC1 [Compound A, reference compound]
3. Nc1nc2c(s1)CCN(CC=Cc1ccccn1)CC2 [Example 11a]

[5100, 24, 760]
